Each recorded value in this set is attributed to patent US20210380702A1.

In this section we review reported kon values for a set of binders.
tested-target: T1, Human PD-L1 Dimer (human, UniProt Q9NZQ7 19-239)
T1 construct: also called hPD-L1 dimer; hPD-L1-hFc
T1 sequence (Q9NZQ7 19-239): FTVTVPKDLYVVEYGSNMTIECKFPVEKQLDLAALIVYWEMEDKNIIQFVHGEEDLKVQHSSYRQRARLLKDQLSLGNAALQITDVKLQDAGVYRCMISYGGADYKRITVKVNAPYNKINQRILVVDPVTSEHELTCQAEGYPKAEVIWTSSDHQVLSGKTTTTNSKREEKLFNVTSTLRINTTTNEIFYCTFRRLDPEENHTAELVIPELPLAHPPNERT
procedure-summary: SPR (Biacore), mAb captured, 25C
Answer with a number only, understood to be in M⁻¹ s⁻¹.

Previously resolved entries follow.
| binder | kon [M⁻¹ s⁻¹] |
| --- | --- |
| H1H9336P (antibody, human IgG1, V domains shown) VH: EVQLVESGGGLVQPGRSLRLSCAASGFTFDDFAMHWVRQAPGKGLEWVSGISWTGGNMDYANSVKGRFTISREDAKNSLYLQMNSLRAADTALYYCVKDIRGIVATGGAFDIWGRGTMVTVSS VL: DIQMTQSPSSLSASVGDRVTISCRASQTISTYLNWFQQKPGKAPKLLIYVVSSLQSGVPSRFSGSGSGTDFTLTISSLQPEDFATYYCQQSYSTPFTFGPGTKVDIK | 1.38e+06 |
| H2aM8310N (antibody, mouse IgG2, V domains shown, also called H2M8310N) VH: QVQLVQSGAEVKKPGASVQVSCKASGYSFTGYYIHWVRQAPGQGLEWMGWINPNSGTKKYAHKFQGRVTMTRDTSIDTAYMILSSLISDDTAVYYCARDEDWNFGSWFDSWGQGTLVTVSS VL: DIVMTQTPLSSPVTLGQPASISCRSSQTLVHGDGNTYLSWIQQRPGQPPRLLIYKVSNQFSGVPDRFSGSGAGTDFTLKISRVEAEDVGLYFCMQATHFPITFGQGTRLEIK | 313000 |

Field: next binder
Item H1H9329P (antibody, human IgG1, V domains shown) VH: EVQLVESGGGLVQSGGSLRLSCAASGFTFSSYWMSWVRQAPGKGLEWVANIKQDGSEKYYVDSVKGRFTISRDNAKNSLYLQMNSLRADDTAVYYCARDDIVVVPAPMGYYYYYFGMDVWGQGTTVTVSS VL: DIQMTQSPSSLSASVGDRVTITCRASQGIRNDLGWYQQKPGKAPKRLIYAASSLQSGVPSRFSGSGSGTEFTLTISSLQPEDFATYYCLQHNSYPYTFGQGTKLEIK has what recorded kon?
2.97e+06
